Catalogue of self-cleavage values
B1: Twister Ribozyme (parent)
chain: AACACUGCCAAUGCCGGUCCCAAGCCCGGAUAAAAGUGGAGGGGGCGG

variants of: B1; assay: self-cleavage, relative activity (ratio to wild type); higher = more cleavage; co-transcriptional
Quick one: just the number, no unit, thanks!

Known results for variants:
- Mutant Name: "C20U G29A"
  self-cleavage: 0.81
- Mutant Name: "G7A G38A"
  self-cleavage: 0.0994
- Mutant Name: "A22G A32C"
  self-cleavage: 0.35
- Mutant Name: "A23U A40C"
  self-cleavage: 0.103
- Mutant Name: "U18G G45A"
  self-cleavage: 0.0963
- Mutant Name: "G7C G28A"
  self-cleavage: 0.0408

**Q:** Looking for the measured self-cleavage of G29U G42C , can you help?
**A:** 0.388

**Q:** Likewise for A33U A35C ?
**A:** 0.961

**Q:** How about A22U G41C ?
**A:** 0.142

**Q:** Now this one: U18A C26A
**A:** 0.313
